Values compiled from patent US20190092852A1.

assayed system: T1, cyno IL-33 N-His (cynomolgus monkey)
T1 chain: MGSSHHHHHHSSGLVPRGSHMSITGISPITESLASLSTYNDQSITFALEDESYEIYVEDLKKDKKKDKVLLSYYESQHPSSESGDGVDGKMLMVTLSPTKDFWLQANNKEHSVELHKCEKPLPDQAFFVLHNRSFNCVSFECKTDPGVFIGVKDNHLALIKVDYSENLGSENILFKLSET
assay protocol: SPR Biacore T200, 37 C
attribute measured: koff
Could you give the number and then its unit, please?

Study these solved cases before continuing.
# binder, koff
records = [
    ("H4H9662P (antibody, V domains shown) VH: EVQLVESGGGLVQPGGSLRLSCAASGFTFSSYALTWVRQAPGKGLEWVSFISGSGGRPFYADSVKGRFTISRDNSKNMLYLQMNSLRAEDTAIYYCAKSLYTTSWYGGFDSWGQGTLVTVSS VL: DIQMTQSPSSVSASVGDRVTITCRASQGVVSWLAWYQQKPGKAPKLLIYAASSLQSGVPSRFSGSGSGTDFTLTISSLQPEDFATYYCQQSNSFPFTLGPGTKVDIK", "0.00112 s⁻¹"),
    ("H4H9667P (antibody, V domains shown) VH: EVQLVESGGGLVQPGGSLRLSCAASGFTFSTYSMHWVRQAPGKGLEYVSTINNNGDTTYYADSVKGRFTISRDNSKNTLYLQLGSLRPEDMAVYYCARQTYTSSWYGGFDSWGQGTLVTVSS VL: DIQMTQSPSSVSASVGDRVTITCRASQGITSWLAWYQQKPGKAPKLLIYAASNLQSGVPSRFSGSGSGTDFTLTITSLQPEDFATYYCQQANSLPFTFGPGTKVDIK", "0.00214 s⁻¹"),
    ("H4H9665P (antibody, V domains shown) VH: EVQLVESGGGLVQPGGSLRLSCAASGFTFSNYAMTWVRQAPGKGLEWVSTISGSGDNTYYADSVQGRFTISRGHSKNTLYLQMNSLRAEDTAVYYCAKPTYSRSWYGAFDFWGQGTMVTVSS VL: DIQMTQSPSSVSASVGDRVTITCRASQGISSWLAWYQQKPGKAPQLLIYAASRLQSGVPSRFWGSGSGTDFTLTISSLQPEDFATYYCQQANNFPFTFGPGTKVDIK", "0.00142 s⁻¹"),
]

Next item in the queue.
Which koff value belongs to H4H9640P (antibody, IgG4, V domains shown, also called RG6) VH: QVQLQESGPGLVKPSETLSLTCTVSGGSISSYYWSWIRQPPGKGLELIGYIYYSGSTNYNPSLKSRVTISVDTSKNHFSLKLSSVTAADTAVYYCARSQYTSSWYGSFDIWGQGTMVTVSS VL: DIQMTQSPSSVSASVGDRVTITCRASQGISTWLAWFQQKPGKAPKLLIYAASTLQGGVPSRFSGSGSGPEFTLTISSLQPEDFATYYCQQANSFPWTFGQGTKVEIK ?
0.0392 s⁻¹
